B1: Glucose-1-phosphate adenylyltransferase large subunit 1 (Solanum tuberosum (Potato)), Q00081 (parent)
chain: NKIKPGVAYSVITTENDTQTVFVDMPRLERRRANPKDVAAVILGGGEGTKLFPLTSRTATPAVPVGGCYRLIDIPMSNCINSAINKIFVLTQYNSAPLNRHIARTYFGNGVSFGDGFVEVLAATQTPGEAGKKWFQGTADAVRKFIWVFEDAKNKNIENIVVLSGDHLYRMDYMELVQNHIDRNADITLSCAPAEDSRASDFGLVKIDSRGRVVQFAEKPKGFDLKAMQVDTTLVGLSPQDAKKSPYIASMGVYVFKTDVLLKLLKWSYPTSNDFGSEIIPAAIDDYNVQAYIFKDYWEDIGTIKSFYNASLALTQEFPEFQFYDPKTPFYTSPRFLPPTKIDNCKIKDAIISHGCFLRDCSVEHSIVGERSRLDCGVELKDTFMMGADYYQTESEIASLLAEGKVPIGIGENTKIRKCIIDKNAKIGKNVSIINKDGVQEADRPEEGFYIRSGIIIILEKATIRDGTVI
partner: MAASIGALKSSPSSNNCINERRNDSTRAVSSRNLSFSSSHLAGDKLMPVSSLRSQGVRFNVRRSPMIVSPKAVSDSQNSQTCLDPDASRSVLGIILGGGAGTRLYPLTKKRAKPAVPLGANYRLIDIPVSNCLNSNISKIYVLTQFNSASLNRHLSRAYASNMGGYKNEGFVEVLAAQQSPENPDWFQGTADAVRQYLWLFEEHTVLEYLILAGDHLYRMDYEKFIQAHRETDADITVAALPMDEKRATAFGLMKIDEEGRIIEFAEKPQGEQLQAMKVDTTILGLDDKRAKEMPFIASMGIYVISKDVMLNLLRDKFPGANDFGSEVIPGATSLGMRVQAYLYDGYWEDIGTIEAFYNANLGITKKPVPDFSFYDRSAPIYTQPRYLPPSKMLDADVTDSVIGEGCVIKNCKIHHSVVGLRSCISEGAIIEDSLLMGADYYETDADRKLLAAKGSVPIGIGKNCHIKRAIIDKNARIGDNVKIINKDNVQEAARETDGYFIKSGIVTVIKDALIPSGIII

Variants of: B1
Details: with glgs_soltu glgs
measuredQuantity: effect of a mutation on the interaction

Here's what some known entries look like.
P339A :: disrupting interaction
I347A :: disrupting interaction
R100A :: disrupting interaction
I351A;I352A :: disrupting interaction

Reported effect of a mutation on the interaction ( I342A ) = disrupting interaction

The reported numbers originate from IntAct's records for PubMed 19876371.
